Target: Cyclooxygenase (Bos taurus, UniProt O62664+O62698)
Assay: Compound was evaluated for inhibition against cyclooxygenase of bovine seminal vesicles
Type: protein assay
readout.name: IC50

O=C1CCN(c2ccccc2)N1 [PHENIDONE] ... 6.9 µM
CC(=O)ON(/C=C\C(=O)c1ccc(F)cc1)Cc1ccccc1 ... > 750 µM
O=C(/C=C\N(O)Cc1ccccc1)c1ccc(F)cc1 ... > 750 µM

Value sought for every listed molecule: IC50.
1. CC(c1cc2ccccc2s1)N(O)C(N)=O (stereo unspecified) [ZILEUTON]
2. O=C(/C=C\N(O)C1CCCCC1)c1ccc(F)cc1
3. CON(/C=C\C(=O)c1ccc(F)cc1)Cc1ccccc1

## Result
1. > 750 µM
2. > 750 µM
3. > 750 µM
